Origin of values: patent US20140051120A1

koff for assorted binders
experimentalSystem: T1, mouse EGFL7 (mEGFL7-CB-His) (mouse, UniProt Q9QXT5 22-275)
T1 sequence: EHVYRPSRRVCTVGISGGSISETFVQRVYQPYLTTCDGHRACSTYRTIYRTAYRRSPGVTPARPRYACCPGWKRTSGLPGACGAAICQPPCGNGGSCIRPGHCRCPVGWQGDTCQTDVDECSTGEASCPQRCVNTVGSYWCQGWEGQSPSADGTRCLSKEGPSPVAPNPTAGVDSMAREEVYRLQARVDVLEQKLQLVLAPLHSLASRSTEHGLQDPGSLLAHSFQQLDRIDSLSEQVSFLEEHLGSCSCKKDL
experimentalDetails: SPR (Biacore), IgG over immobilized mEGFL7-CB at 37 C;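 further: IgG injected as twofold series from 0.5 to 1000 nM, 3 min association and 3.5 min dissociation, reference flow cell subtracted, kinetics fitted to 1:1 Langmuir model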
Numbers only here, please. The scale is s⁻¹.

Below: 2 binders and their reported koff.
response.value for 18F7.v6J IgG (antibody, V domains shown, IgG; Variant of 18F7.v6) VH: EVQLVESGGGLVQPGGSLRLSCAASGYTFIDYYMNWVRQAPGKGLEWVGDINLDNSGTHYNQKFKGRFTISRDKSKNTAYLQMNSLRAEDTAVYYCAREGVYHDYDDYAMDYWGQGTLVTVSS VL: DIQMTQSPSSLSASVGDRVTITCRTSQSLVHINSITYLHWYQQKPGKAPKLLIYRVSNRFSGVPSRFSGSGSGTDFTLTISSLQPEDFATYYCGQSTHVPLTFGQGTKVEIK (field: koff) = 1.64e-05

Quick note, koff for 18F7.v9 IgG (antibody, V domains shown, IgG; Kabat numbering) VH: EVQLVESGGGLVQPGGSLRLSCAASGYTFIDKYMNWVRQAPGKGLEWVGDINLDNGGTHYNQKFKGRFTISRDKSKNTAYLQMNSLRAEDTAVYYCAREGVYHDYDDYAMDYWGQGTLVTVSS VL: DIQMTQSPSSLSASVGDRVTITCRTSQSLVHINGITYLHWYQQKPGKAPKLLIYRVSNRFSGVPSRFSGSGSGTDFTLTISSLQPEDFATYYCSQSTHVPLTFGQGTKVEIK landed at 9.32e-05

// below: koff requested for another binder
The measured koff associated with 18F7.v8 IgG (antibody, V domains shown, IgG; Kabat numbering) VH: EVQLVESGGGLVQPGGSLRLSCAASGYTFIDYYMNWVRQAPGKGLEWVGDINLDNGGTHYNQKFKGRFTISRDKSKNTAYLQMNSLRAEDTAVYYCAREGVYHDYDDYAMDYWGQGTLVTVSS VL: DIQMTQSPSSLSASVGDRVTITCRTSQSLVHINGITYLHWYQQKPGKAPKLLIYRVSNRFSGVPSRFSGSGSGTDFTLTISSLQPEDFATYYCVQSTHVPLTFGQGTKVEIK reads 0.000199
